// provenance: paper PMC4966696

logD values, listed per item
Experiment: physchem
Settings: n-octanol/buffered aqueous solution, pH 7.4
Output: the number by itself.

* CN(C)C(=S)N/N=C/c1ncccc1N(C)C [Me2NNMe2] | 1.52
* CNc1cccnc1/C=N/NC(=S)N(C)C.Cl [MeHNNMe2] | 2.1
* CN(C)c1cccnc1/C=N/NC(N)=S [Me2NNH2] | 1.21

Please turn your attention to the following entry.
Query (compound): CNc1cccnc1/C=N/NC(N)=S.Cl [MeHNNH2] ; field requested: logD
1.4

###

Recorded resistance factor SW480/Tria by entry
Tested on: SW480/Tria cells
Experiment: MTT cytotoxicity, 72 h, Triapine-resistant subline
Format: cell-based, human
Conditions: IC50 SW480/Tria relative to parental SW480
The answer should be written as a number, with no unit following it.

In the examples that follow, each entry is paired with its recorded resistance factor SW480/Tria.
- CN(C)c1cccnc1/C=N/NC(N)=S: 0.8
- CNc1cccnc1/C=N/NC(=S)N(C)C.Cl: 0.2
- CNc1cccnc1/C=N/NC(N)=S.Cl: 7.3
- CN(C)C(=S)N/N=C/c1ncccc1N: 0.6
- CNC(=S)N/N=C/c1ncccc1NC: 1.5

So what's the measured resistance factor SW480/Tria for this one? CN(C)C(=S)NN=C(c1ccccn1)c1ccccn1 [Dp44mT, reference compound]
3.33

Look at this compound and give its reported resistance factor SW480/Tria. CN(C)C(=S)N/N=C/c1ncccc1N(C)C
0.6
